- Tested on: thromboplastin clotting time in human plasma
- procedure-details: prothrombin time test (thromboplastin clotting time in human plasma)
- Format: biochemical
- recorded-conditions: 180 micrograms per milliliter of plasma; 37° C.; human plasma
Where a name gives a salt, the structure may show the parent alone.
reported-property: plasma prothrombin time

Reference set, count: 2
>  <compound>
CCCCCCCOc1ccc(CCC(C)N)cc1 (stereo not drawn) [Example 51, hydrochloride]

>  <plasma prothrombin time>
> 300 s

$$$$
>  <compound>
Cl.NCC(Cc1cccc2ccccc12)c1ccccc1 (stereo not drawn)

>  <plasma prothrombin time>
> 300 s

$$$$

Please look at the following compound next.
[ask] Field request: plasma prothrombin time | item: CCCCCCCCCOc1ccc(CCC(C)NCCN(C)C)cc1 (stereo not drawn) [Example 54, dihydrochloride]
[reply] > 300 s
